The origin of these recorded values is patent US8148373B2.

- SYSTEM: human muscarinic acetylcholine M3 receptor (M3-ACh) (Homo sapiens)
- Construct: expressed in transfected cells; host or cells: CHO-K1 (Chinese Hamster Ovary) cell membranes
- Sequence (P20309 whole entry): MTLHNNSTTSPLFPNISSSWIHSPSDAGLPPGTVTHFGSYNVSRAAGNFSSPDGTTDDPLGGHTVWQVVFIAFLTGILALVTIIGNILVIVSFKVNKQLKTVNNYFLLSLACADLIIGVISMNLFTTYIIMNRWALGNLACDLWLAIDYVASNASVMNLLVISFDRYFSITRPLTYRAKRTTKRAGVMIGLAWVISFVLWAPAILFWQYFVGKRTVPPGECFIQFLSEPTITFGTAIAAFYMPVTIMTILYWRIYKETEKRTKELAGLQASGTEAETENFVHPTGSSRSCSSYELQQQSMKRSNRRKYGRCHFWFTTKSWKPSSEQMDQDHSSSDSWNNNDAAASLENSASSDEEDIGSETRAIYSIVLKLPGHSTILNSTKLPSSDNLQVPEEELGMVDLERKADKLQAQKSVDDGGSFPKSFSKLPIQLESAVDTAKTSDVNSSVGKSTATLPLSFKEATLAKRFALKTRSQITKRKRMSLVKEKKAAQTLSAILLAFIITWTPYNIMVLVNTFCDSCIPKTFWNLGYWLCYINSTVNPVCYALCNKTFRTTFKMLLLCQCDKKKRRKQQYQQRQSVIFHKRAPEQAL
- MEASUREMENT DESCRIPTION: Muscarinic 3 Receptor Binding Assay, % inhibition specific binding at 1 μM
- CONDITION SET: 1 μM compound, % inhibition specific [3H]-NMS binding
PARAMETER MEASURED: inhibition at 1 µM (%)

{"columns": ["STRUCTURE AS SMILES", "PARAMETER MEASURED", "READOUT VALUE"],
 "data": [
  ["O=C(c1ccc2c(c1)CCO2)N1CCOC2(CCN(Cc3cc(F)cc(CCNC[C@H](O)c4ccc(O)c5[nH]c(=O)sc45)c3)CC2)C1", "inhibition at 1 µM", 92],
  ["O=C(c1ccsc1Cl)N1CCOC2(CCN(CCCCCCCCCNC[C@H](O)c3ccc(O)c4[nH]c(=O)sc34)CC2)C1", "inhibition at 1 µM", 88],
  ["O=C(COc1ccccc1)N1CCOC2(CCN(CCCCCCCCCNC[C@H](O)c3ccc(O)c4[nH]c(=O)sc34)CC2)C1", "inhibition at 1 µM", 91],
  ["Cc1cc(C(=O)N2CCOC3(CCN(Cc4cc(F)cc(CCNC[C@H](O)c5ccc(O)c6[nH]c(=O)sc56)c4)CC3)C2)c(C)s1", "inhibition at 1 µM", 91]
]}

###

- SYSTEM: Adrenergic β2 (H292 cells) (Homo sapiens, UniProt P07550)
- Construct: endogenous in cells; host or cells: H292 cells
- Sequence (P07550 whole entry): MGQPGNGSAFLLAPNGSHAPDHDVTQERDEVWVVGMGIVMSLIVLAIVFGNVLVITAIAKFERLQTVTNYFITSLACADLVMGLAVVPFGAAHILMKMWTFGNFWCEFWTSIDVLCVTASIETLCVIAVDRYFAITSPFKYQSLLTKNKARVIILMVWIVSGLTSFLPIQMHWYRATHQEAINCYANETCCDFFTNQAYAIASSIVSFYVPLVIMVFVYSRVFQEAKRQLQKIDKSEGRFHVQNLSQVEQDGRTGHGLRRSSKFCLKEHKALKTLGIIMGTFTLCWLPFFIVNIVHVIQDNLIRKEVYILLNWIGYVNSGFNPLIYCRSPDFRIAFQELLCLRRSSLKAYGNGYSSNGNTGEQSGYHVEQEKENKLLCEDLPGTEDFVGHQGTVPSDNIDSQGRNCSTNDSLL
- MEASUREMENT DESCRIPTION: Adrenergic β2 Mediated cAMP Production, single concentration 1 μM
- Format: cell-based
- CONDITION SET: NCI-H292, 1 μM compound, percentage of the maximum response generated by 1E-07M formoterol, read-out: β2 (% effect at 1 μM)
PARAMETER MEASURED: activation at 1 µM (%)

{"columns": ["STRUCTURE AS SMILES", "activation at 1 µM, %"],
 "data": [
  ["CC(C)(C)CC(=O)N1CCOC2(CCN(Cc3cc(F)cc(CCNC[C@H](O)c4ccc(O)c5[nH]c(=O)sc45)c3)CC2)C1", 109],
  ["Cc1cc(C(=O)N2CCOC3(CCN(CCOc4ccc(CNC[C@H](O)c5ccc(O)c6[nH]c(=O)sc56)cc4)CC3)C2)oc1C", 73],
  ["Cc1ccnn1CC(=O)N1CCOC2(CCN(CCCCCCCCCNC[C@H](O)c3ccc(O)c4[nH]c(=O)sc34)CC2)C1", 92],
  ["O=C(CCc1cccs1)N1CCOC2(CCN(CCCCCCCCCNC[C@H](O)c3ccc(O)c4[nH]c(=O)sc34)CC2)C1", 101],
  ["O=C(CCCc1ccccc1)N1CCOC2(CCN(CCOc3ccc(CNC[C@H](O)c4ccc(O)c5[nH]c(=O)sc45)cc3)CC2)C1", 83],
  ["Cc1nc(C)c(CC(=O)N2CCOC3(CCN(CCOc4ccc(CNC[C@H](O)c5ccc(O)c6[nH]c(=O)sc56)cc4)CC3)C2)s1", 88],
  ["O=C(Cc1cccs1)N1CCOC2(CCN(CCCCCCCCCNC[C@H](O)c3ccc(O)c4[nH]c(=O)sc34)CC2)C1", 81]
]}

###

- SYSTEM: Adrenergic β2 (H292 cells) (Homo sapiens)
- Construct: endogenous in cells; host or cells: H292 cells
- MEASUREMENT DESCRIPTION: Assay for Adrenergic β2 Mediated cAMP Production (concentration response, AlphaScreen cAMP detection)
- Type: cell-based
- CONDITION SET: cAMP production, 60 minutes at room temperature, 300 μM rolipram, read-out: β2 pEC50 (converted)
Structures can show the parent of a compound that is named as a salt.
PARAMETER MEASURED: EC50 (µM)

{"columns": ["MOLECULE", "SYSTEM", "UNIT", "READOUT VALUE"],
 "data": [
  ["CC(C)c1cc(C(=O)N2CCOC3(CCN(CCCCCCCNC[C@H](O)c4ccc(O)c5[nH]c(=O)sc45)CC3)C2)cs1 [Example 284, formate]", "Adrenergic β2 (H292 cells) (Homo sapiens)", "µM", 0.0126]
]}

A: CC(C)c1nc(C(=O)N2CCOC3(CCN(CCCCCC(C)(C)CNC[C@H](O)c4ccc(O)c5[nH]c(=O)sc45)CC3)C2)cs1 [Example 102, formate]
B: CC(C)c1nc(C(=O)N2CC(F)(F)OC3(CCN(Cc4cccc(CCNC[C@H](O)c5ccc(O)c6[nH]c(=O)ccc56)c4)CC3)C2)cs1 [Example 44, ditrifluoroacetate]
Enquiry: Compare reported EC50 values for A and B . Which is lower? Provide the label of your selected option as the answer.
Return: B
(B: 0.00251 µM, A: 0.2 µM)

###

- SYSTEM: Adrenergic β2 (H292 cells) (Homo sapiens, UniProt P07550)
- Construct: endogenous in cells; host or cells: H292 cells
- MEASUREMENT DESCRIPTION: Adrenergic β2 Mediated cAMP Production, single concentration 1 μM
- Type: cell-based
- CONDITION SET: NCI-H292, 1 μM compound, percentage of the maximum response generated by 1E-07M formoterol, read-out: β2 (% effect at 1 μM)
PARAMETER MEASURED: activation at 1 µM (%)

Study these solved cases before continuing.
{"columns": ["COMPOUND", "UNIT", "activation at 1 µM"],
 "data": [
  ["O=C(CCc1ccccc1)N1CCOC2(CCN(CCOc3ccc(CNC[C@H](O)c4ccc(O)c5[nH]c(=O)sc45)cc3)CC2)C1", "%", 67],
  ["Cc1sccc1C(=O)N1CCOC2(CCN(Cc3cc(F)cc(CCNC[C@H](O)c4ccc(O)c5[nH]c(=O)sc45)c3)CC2)C1", "%", 102],
  ["Cc1ccn(CC(=O)N2CCOC3(CCN(Cc4cc(F)cc(CCNC[C@H](O)c5ccc(O)c6[nH]c(=O)sc56)c4)CC3)C2)n1", "%", 98]
]}

1: O=C(c1csc(C(F)(F)F)n1)N1CCOC2(CCN(CCCCCCCCCNC[C@H](O)c3ccc(O)c4[nH]c(=O)sc34)CC2)C1
2: CC(C)(C(=O)N1CCOC2(CCN(CCOc3ccc(CNC[C@H](O)c4ccc(O)c5[nH]c(=O)sc45)cc3)CC2)C1)c1ccccc1
Enquiry: Of 1 and 2 , which one carries the higher reported activation at 1 µM? Reply with the label of the item you choose.
Return: 1

###

- SYSTEM: Adrenergic β2 (H292 cells) (Homo sapiens)
- Construct: endogenous in cells; host or cells: H292 cells
- MEASUREMENT DESCRIPTION: Adrenergic β2 Mediated cAMP Production, single concentration 1 μM
- Type: cell-based
- CONDITION SET: NCI-H292, 1 μM compound, percentage of the maximum response generated by 1E-07M formoterol, read-out: β2 (% effect at 1 μM)
- Experimental: The following experimental procedure was used to measure the beta-2% effect at 1 μM for the compounds of Examples 116-263. Adrenergic β2 Mediated cAMP Production Cell Preparation H292 cells are grown in 225 cm2 flasks incubator at 37° C., 5% CO2 in RPMI medium containing 10% (v/v) FBS (foetal bovine serum) and 2 mM L-glutamine. […] The concentration of cAMP (cyclic adenosine monophosphate) in the cell lysate is determined using AlphaScreen™ methodology. […]
PARAMETER MEASURED: activation at 1 µM (%)

{"columns": ["STRUCTURE AS SMILES", "activation at 1 µM / %"],
 "data": [
  ["O=C(CCCc1cccs1)N1CCOC2(CCN(CCOc3ccc(CNC[C@H](O)c4ccc(O)c5[nH]c(=O)sc45)cc3)CC2)C1", 89],
  ["Cc1cc(C(=O)N2CCOC3(CCN(Cc4cc(F)cc(CCNC[C@H](O)c5ccc(O)c6[nH]c(=O)sc56)c4)CC3)C2)oc1C", 92],
  ["COc1ccccc1CC(=O)N1CCOC2(CCN(Cc3cc(F)cc(CCNC[C@H](O)c4ccc(O)c5[nH]c(=O)sc45)c3)CC2)C1", 101]
]}

P: Cc1ccc(C(=O)N2CCOC3(CCN(CCCCCCCCCNC[C@H](O)c4ccc(O)c5[nH]c(=O)sc45)CC3)C2)o1
Q: O=C(c1ccc(Cl)s1)N1CCOC2(CCN(CCOc3ccc(CNC[C@H](O)c4ccc(O)c5[nH]c(=O)sc45)cc3)CC2)C1
Enquiry: Returns: the argument ( P or Q ) having the larger activation at 1 µM. Indicate your choice by writing its label.
Return: P
(P: 82%, Q: 53%)

P: O=C(c1ccc(Cl)s1)N1CCOC2(CCN(Cc3cc(F)cc(CCNC[C@H](O)c4ccc(O)c5[nH]c(=O)sc45)c3)CC2)C1
Q: CC(C)c1cc(C(=O)N2CCOC3(CCN(CCOc4ccc(CNC[C@H](O)c5ccc(O)c6[nH]c(=O)sc56)cc4)CC3)C2)no1
Enquiry: Determine, for P and Q , which has the greater value of activation at 1 µM. # reply format: chosen label
Return: P
(P: 100%, Q: 66%)
